// reported Growth inhibition rate (%) Rice per item
Tested on: rice (Oryza sativa L.)
Assay: Test Example 1: foliar treatment, growth inhibition rate on 14th day
Assay type: in vivo
Details: active ingredient amount 31 g/ha, 14th day after application, visual, 0 = non-treated, 100 = complete kill
Lab book: enter the figure in %, no units written.

Asked: Param item = CCS(=O)(=O)Oc1c(C)nn(C)c(=O)c1-c1cc(Oc2cnc3cc(Cl)ccc3n2)ccc1C ; retrieve measured Growth inhibition rate (%) Rice.
Given back: 0

Next:
Asked: Param item = CSCCC(=O)Oc1c(C)nn(C)c(=O)c1-c1cc(Oc2cnc3cc(Cl)ccc3n2)ccc1C ; retrieve measured Growth inhibition rate (%) Rice.
Given back: 60

Asked: Note, next up: C#CC(=O)Oc1c(C)nn(C)c(=O)c1-c1cc(Oc2cnc3cc(Cl)ccc3n2)ccc1C
Given back: 93

Asked: Note, next up: Cc1ccc(Oc2cnc3cc(Cl)ccc3n2)cc1-c1c(OC(=O)OC(C)C)c(C)nn(C)c1=O
Given back: 10

Asked: Note, next up: C=CCOc1c(C)nn(C)c(=O)c1-c1cc(Oc2cnc3cc(Cl)ccc3n2)ccc1C
Given back: 0

Asked: Note, next up: Cc1ccc(Oc2cnc3cc(Cl)ccc3n2)cc1-c1c(OCOCCCl)c(C)nn(C)c1=O
Given back: 0

###

Test system: soybean (Glycine max Merr.)
Assay: Test Example 1: foliar treatment, growth inhibition rate on 14th day
Assay type: in vivo
Details: active ingredient amount 31 g/ha, 14th day after application
// reported Growth inhibition rate (%) Soybean per item
Lab book: enter the figure in %, no units written.

Asked: So what Growth inhibition rate (%) Soybean did CC(=O)Oc1c(C)nn(C)c(=O)c1-c1cc(Oc2nccc(C(F)(F)F)c2Cl)ccc1C [Compound 2-131] get with soybean (Glycine max Merr.)?
Given back: 10

Next:
Asked: So what Growth inhibition rate (%) Soybean did Cc1ccc(Oc2ncc(C(F)(F)F)cc2F)cc1-c1c(O)c(C)nn(C)c1=O [Compound 2-5] get with soybean (Glycine max Merr.)?
Given back: 0

Asked: Note, next up: CC(=O)Oc1c(C)nn(C)c(=O)c1-c1cc(Oc2ccc(C(F)(F)F)cn2)ccc1C [Compound 2-61]
Given back: 0

Asked: Note, next up: Cc1ccc(Oc2ccc3cc(Br)ccc3n2)cc1-c1c(O)c(C)nn(C)c1=O [Compound 2-94]
Given back: 0

Asked: Note, next up: Cc1nn(C)c(=O)c(-c2cc(Oc3ncc(C(F)(F)F)cc3Cl)ccc2C2CC2)c1O [1-149]
Given back: 0

Asked: Note, next up: COCCOCOc1c(C)nn(C)c(=O)c1-c1cc(Oc2ncc(C(F)(F)F)cc2Cl)ccc1C [1-134]
Given back: 0

Asked: Note, next up: CCc1nn(C)c(=O)c(-c2cc(Oc3ncc(C(F)(F)F)cc3Cl)ccc2C)c1OC(C)=O [1-137]
Given back: 15

Asked: Note, next up: CC(=O)Oc1c(C)nn(C)c(=O)c1-c1cc(Oc2nc3cc(Cl)ccc3o2)ccc1C [Compound 2-139]
Given back: 10

Asked: Note, next up: Cc1ccc(Oc2nc3cccc(Cl)c3o2)cc1-c1c(O)cnn(C)c1=O [Compound 2-185]
Given back: 20

Asked: Note, next up: CC(=O)Oc1cnn(C(C)C)c(=O)c1-c1cc(Oc2nc3ccc(Cl)cc3o2)ccc1C [Compound 2-172]
Given back: 40

Asked: Note, next up: Cc1ccc(Oc2nc3cc(Cl)ccc3o2)cc1-c1c(O)c(C)nn(C)c1=O [Compound 2-105]
Given back: 25

Asked: Note, next up: CC(=O)Oc1c(C)nn(C)c(=O)c1-c1cc(Oc2cc(C(F)(F)F)c(C(F)(F)F)cn2)ccc1C [Compound 2-126]
Given back: 20

Asked: Note, next up: CCOC(=O)Oc1c(C)nn(C)c(=O)c1-c1cc(Oc2ncc(C(F)(F)F)cc2Cl)ccc1C [1-41]
Given back: 0

###

// reported Growth inhibition rate (%) Barnyardgrass per item
Tested on: barnyardgrass (Echinochloa crus-qalli L.)
Experiment: Test Example 1: foliar treatment, growth inhibition rate on 14th day
Assay type: in vivo
Settings: active ingredient amount 31 g/ha, 14th day after application
Lab book: enter the figure in %, no units written.

// worked examples, Growth inhibition rate (%) Barnyardgrass included
Asked: Param item = Cc1ccc(Oc2nc3ccc(Cl)cc3o2)cc1-c1c(O)cnn(CC2CC2)c1=O ; retrieve measured Growth inhibition rate (%) Barnyardgrass.
Given back: 90

Asked: Note, next up: CC(=O)Oc1c(C)nn(C)c(=O)c1-c1cc(Oc2ncc(Cl)cc2C(F)(F)F)ccc1C
Given back: 100

Asked: Note, next up: Cc1ccc(Oc2nc3ccc(F)cc3s2)cc1-c1c(O)c(C)nn(C)c1=O
Given back: 78

Asked: Note, next up: Cc1c(Oc2ncc(C(F)(F)F)cc2Cl)cccc1-c1c(O)cnn(CC2CC2)c1=O
Given back: 95

Next:
Asked: Param item = CC(=O)Oc1c(C)nn(C)c(=O)c1-c1cc(Oc2ncc(Cl)cn2)ccc1C ; retrieve measured Growth inhibition rate (%) Barnyardgrass.
Given back: 85

###

Test system: rice (Oryza sativa L.)
Assay: Test Example 1: foliar treatment, growth inhibition rate on 14th day
Type: in vivo
Details: active ingredient amount 31 g/ha, 14th day after application, visual, 0 = non-treated, 100 = complete kill
Given measured Growth inhibition rate (%) Rice, output satisfied if it is greater than or equal to 20% and not satisfied if not.

Worked cases, answers included:
Asked: Tell me whether Growth inhibition rate (%) Rice is at least 20% here: Cc1ccc(Oc2cnc3cc(Cl)ccc3n2)cc1-c1c(OC(C)OC(=O)OC2CCCCC2)c(C)nn(C)c1=O (stereo not drawn)
Given back: not satisfied

Asked: Note, next up: COCC(=O)Oc1c(C)nn(C)c(=O)c1-c1cc(Oc2cnc3cc(Cl)ccc3n2)ccc1C
Given back: satisfied

Asked: Note, next up: Cc1ccc(Oc2cnc3cc(Cl)ccc3n2)cc1-c1c(OC(=O)C(F)(F)F)c(C)nn(C)c1=O
Given back: satisfied

Next:
Asked: Tell me whether Growth inhibition rate (%) Rice is at least 20% here: Cc1ccc(Oc2cnc3cc(Cl)ccc3n2)cc1-c1c(OC(=O)c2ccccn2)c(C)nn(C)c1=O
Given back: satisfied

Asked: Note, next up: Cc1ccc(Oc2cnc3cc(Cl)ccc3n2)cc1-c1c(OC(=O)CC2CCCCC2)c(C)nn(C)c1=O
Given back: not satisfied

Asked: Note, next up: CCOC(=O)C(=O)Oc1c(C)nn(C)c(=O)c1-c1cc(Oc2cnc3cc(Cl)ccc3n2)ccc1C
Given back: satisfied

Asked: Note, next up: COCCOCOc1c(C)nn(C)c(=O)c1-c1cc(Oc2cnc3cc(Cl)ccc3n2)ccc1C
Given back: not satisfied

Asked: Note, next up: Cc1ccc(Oc2cnc3cc(Cl)ccc3n2)cc1-c1c(OC(=O)Oc2ccc(F)cc2)c(C)nn(C)c1=O
Given back: not satisfied

Asked: Note, next up: Cc1ccc(Oc2cnc3cc(Cl)ccc3n2)cc1-c1c(OS(=O)(=O)C2CC2)c(C)nn(C)c1=O
Given back: not satisfied

###

Tested on: rice (Oryza sativa L.)
Assay: Test Example 1: foliar treatment, growth inhibition rate on 14th day
Assay type: in vivo
Conditions: active ingredient amount 31 g/ha, 14th day after application, visual, 0 = non-treated, 100 = complete kill
measured.endpoint: Growth inhibition rate (%) Rice
Lab book: enter the figure in %, no units written.

// worked examples, Growth inhibition rate (%) Rice included
Asked: Param item = Cc1ccc(Oc2cnc3cc(Cl)ccc3n2)cc1-c1c(OC(=O)C=CCl)c(C)nn(C)c1=O ; retrieve measured Growth inhibition rate (%) Rice.
Given back: 20

Asked: Note, next up: Cc1ccc(S(=O)(=O)Oc2c(C)nn(C)c(=O)c2-c2cc(Oc3cnc4cc(Cl)ccc4n3)ccc2C)cc1
Given back: 15

Asked: Note, next up: CCn1nc(C)c(OC(C)=O)c(-c2cc(Oc3cnc4cc(Cl)ccc4n3)ccc2C)c1=O
Given back: 75

Asked: Note, next up: Cc1ccc(Oc2cnc3cc(Cl)ccc3n2)cc1-c1c(OC(=O)OC2CC(C)CCC2C(C)C)c(C)nn(C)c1=O (stereo not drawn)
Given back: 0

Asked: Note, next up: Cc1ccc(Oc2cnc3cc(Cl)ccc3n2)cc1-c1c(OC(=S)Sc2ccccc2)c(C)nn(C)c1=O
Given back: 0

Moving on to the next compound.
Asked: Param item = C#CCOc1c(C)nn(C)c(=O)c1-c1cc(Oc2cnc3cc(Cl)ccc3n2)ccc1C ; retrieve measured Growth inhibition rate (%) Rice.
Given back: 0
